assay: Cytotoxicity against human L02 cells assessed as cell viability at 10 uM after 24 hrs by MTS assay relative to control; format: cell-based; settings: read-out: Activity
Property name: viability at 24 h, 10 µM

**Q:** State, in one line, measured viability at 24 h, 10 µM of CC1(C)C[C@H](O)[C@]2(CO)[C@H](O)[C@H](O)[C@]3(C)C(=CC[C@@H]4[C@@]5(C)CCC(=O)C(C)(C)[C@@H]5CC[C@]43C)[C@@H]2C1
**A:** > 90%

**Q:** Respond only with viability at 24 h, 10 µM recorded for CC1(C)CC[C@]2(CO)[C@H](O)[C@H](O)[C@]3(C)C(=CC[C@@H]4[C@@]5(C)CC[C@H](O)C(C)(C)[C@@H]5CC[C@]43C)[C@@H]2C1
**A:** > 90%

**Q:** Query viability at 24 h, 10 µM for C[C@H]1[C@H](C)CC[C@]2(C)CC[C@]3(C)C(=CC[C@@H]4[C@@]5(C)CC[C@H](O)C(C)(C)[C@@H]5CC[C@]43C)[C@H]12
**A:** > 90%

###

For each of the compounds below, state its pIC50.
biological target: Tyrosine-protein phosphatase non-receptor type 1 (Homo sapiens, UniProt P18031); assay: Inhibition of recombinant human GST-tagged PTP1B catalytic domain expressed in Escherichia coli BL21 using para-nitrophenyl phosphate as substrate
Sequence (P18031 whole entry, the tested form may be a part): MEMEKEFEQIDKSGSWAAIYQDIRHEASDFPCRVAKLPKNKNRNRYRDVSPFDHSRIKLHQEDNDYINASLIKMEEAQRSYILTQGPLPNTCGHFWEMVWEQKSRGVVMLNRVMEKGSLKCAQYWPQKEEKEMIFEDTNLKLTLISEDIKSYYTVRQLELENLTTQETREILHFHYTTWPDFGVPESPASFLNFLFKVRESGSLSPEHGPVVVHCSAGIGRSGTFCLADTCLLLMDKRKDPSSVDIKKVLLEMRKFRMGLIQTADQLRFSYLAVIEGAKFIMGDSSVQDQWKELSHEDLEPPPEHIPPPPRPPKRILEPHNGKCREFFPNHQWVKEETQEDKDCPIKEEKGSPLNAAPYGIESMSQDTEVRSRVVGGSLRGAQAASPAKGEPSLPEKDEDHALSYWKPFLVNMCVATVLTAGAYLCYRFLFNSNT
Scale for pIC50: -log10 of concentration given in mol/L; no unit attached.

**Q:** Give the measured pIC50 for CC(C)(O)[C@@H]1CC[C@]2(C)CC[C@]3(C)C(CC[C@@H]4[C@@]5(C)CC[C@H](O)C(C)(C)[C@@H]5CC[C@]43C)[C@H]12 (some centres not stated)
**A:** 4.91

**Q:** Read off the recorded pIC50 for C=C(C)[C@@H]1CC[C@]2(C)CC[C@]3(C)[C@H](CC[C@@H]4[C@@]5(C)CC[C@H](O)C(C)(C)[C@@H]5CC[C@]43C)[C@@H]12
**A:** 5.43

**Q:** Find the measured pIC50 of CC1(C)C[C@H](O)[C@]2(CO)[C@H](O)[C@H](O)[C@]3(C)C(=CC[C@@H]4[C@@]5(C)CC[C@H](O)C(C)(C)[C@@H]5CC[C@]43C)[C@@H]2C1 and report it.
**A:** 4.77

**Q:** Assign pIC50 to the following record: CC1(C)C[C@H](O)[C@]2(CO)[C@H](O)C[C@]3(C)C(=CC[C@@H]4[C@@]5(C)CC[C@H](O)C(C)(C)[C@@H]5CC[C@]43C)[C@@H]2C1
**A:** 5.05

**Q:** Identify the reported pIC50 for the following entry. CC(=O)O[C@@H]1[C@H](O)[C@]2(C)C(=CC[C@@H]3[C@@]4(C)CCC(=O)C(C)(C)[C@@H]4CC[C@]32C)[C@@H]2CC(C)(C)C[C@H](O)[C@]12CO
**A:** 4.70

**Q:** Please indicate pIC50 recorded for C/C=C(/C)C(=O)OC[C@@]12[C@H](O)[C@H](O)[C@]3(C)C(=CC[C@@H]4[C@@]5(C)CC[C@H](O)C(C)(C)[C@@H]5CC[C@]43C)[C@@H]1CC(C)(C)C[C@@H]2O
**A:** 4.96

**Q:** Look up and report measured pIC50 for this entry: CC(=O)O[C@@H]1C[C@]2(C)C(=CC[C@@H]3[C@@]4(C)CC[C@H](O)C(C)(C)[C@@H]4CC[C@]32C)[C@@H]2CC(C)(C)C[C@H](O)[C@]12CO
**A:** 4.99

**Q:** Given C/C=C(/C)C(=O)O[C@H]1CC(C)(C)C[C@H]2C3=CC[C@@H]4[C@@]5(C)CC[C@H](O)C(C)(C)[C@@H]5CC[C@@]4(C)[C@]3(C)[C@@H](O)[C@@H](O)[C@@]12CO , respond with its pIC50.
**A:** 5.59

**Q:** In one line, give reported pIC50 of the entry C/C=C(/C)C(=O)O[C@H]1CC(C)(C)C[C@H]2C3=CC[C@@H]4[C@@]5(C)CC[C@H](O)C(C)(C)[C@@H]5CC[C@@]4(C)[C@]3(C)[C@@H](O)[C@@H](OC(C)=O)[C@@]12CO .
**A:** 5.31

**Q:** Check the records and state pIC50 for CC1(C)CC[C@]2(CO)[C@H](O)[C@H](O)[C@]3(C)C(=CC[C@@H]4[C@@]5(C)CC[C@H](O)C(C)(C)[C@@H]5CC[C@]43C)[C@@H]2C1
**A:** 4.84

**Q:** Using the record for CC1(C)C[C@H](O)[C@]2(CO)[C@H](O)[C@H](O)[C@]3(C)C(=CC[C@@H]4[C@@]5(C)CCC(=O)C(C)(C)[C@@H]5CC[C@]43C)[C@@H]2C1 , state its measured pIC50.
**A:** 4.31
